Below are HepSE_jaundice values recorded for Hepatotoxicity.
// no unit, no text: just the number

The examples below pair each entry with its known result.
COMPOUND	HepSE_jaundice
Cc1cn[nH]c1 [FOMEPIZOLE]	0
Cc1c(O)cccc1C(=O)N[C@@H](CSc1ccccc1)[C@H](O)CN1C[C@H]2CCCC[C@H]2C[C@H]1C(=O)NC(C)(C)C	1
CC1(C)S[C@@H]2[C@H](NC(=O)C(C(=O)O)c3ccccc3)C(=O)N2[C@H]1C(=O)O (some centres not stated)	0

Query block: // lookup HepSE_jaundice for CN(C)CCC(c1ccc(Cl)cc1)c1ccccn1 (configuration not stated)
Result block: 0

Query block: What about CC(C)Cn1cnc2c(N)nc3ccccc3c21 ?
Result block: 0

Query block: What about CC(C)C(=O)Nc1ccc([N+](=O)[O-])c(C(F)(F)F)c1 [FLUTAMIDE] ?
Result block: 1

Query block: What about CC[C@H](C)C[C@H](C)CCCCCCCCC(=O)N[C@H]1C[C@@H](O)[C@@H](NCCN)NC(=O)[C@@H]2[C@@H](O)CCN2C(=O)[C@H]([C@H](O)CCN)NC(=O)[C@H]([C@H](O)[C@@H](O)c2ccc(O)cc2)NC(=O)[C@@H]2C[C@@H](O)CN2C(=O)[C@H]([C@@H](C)O)NC1=O ?
Result block: 1

Query block: What about NC(=O)N1c2ccccc2CC(=O)c2ccccc21 [OXCARBAZEPINE] ?
Result block: 0

Query block: What about C[C@@H](O)[C@H]1C(=O)N2C(C(=O)O)=C(S[C@@H]3CN[C@H](C(=O)N(C)C)C3)[C@H](C)[C@H]12 ?
Result block: 1

Query block: What about O=c1[nH]c2ccccc2n1C1CCN(CCCC(c2ccc(F)cc2)c2ccc(F)cc2)CC1 [PIMOZIDE] ?
Result block: 0

Query block: What about CC(CN1c2ccccc2Sc2ccccc21)N(C)C (configuration not stated) ?
Result block: 1

* * *

*1 amine or outer side, *2 acyl side, *3 side chain or, on linkers, in order; H or OH if unused. Where a SMILES comes first, the peptide text is derived from it. Bridges are numbered along the chain shown (N, C = ends). [ ]: non-standard residue; d: D form. The star is where a group is joined. hTyr(3S-OH,4S-OH,3'-OSO3H) = N[C@H](C(=O)O)[C@H](O)[C@@H](O)c1ccc(O)c(OS(=O)(=O)O)c1; Orn(4R-OH,5R-OH) = O=C([C@H](C[C@@H](O)[C@@H](O)N[*:3])N[*:1])[*:2]; Pro(3S-OH,4S-Me) = C[C@H]1CN[C@H](C(=O)O)[C@H]1O; X1 = CCCCCOc1ccc(-c2cc(-c3ccc(C(=O)*)cc3)no2)cc1; Gln(3R-OH) = NC(=O)C[C@@H](O)[C@H](N)C(=O)O; Hyp = O=C(O)[C@@H]1C[C@@H](O)CN1
Below are HepSE_Combined Scores values recorded for Hepatotoxicity.
// no unit, no text: just the number

COMPOUND	TGT	HepSE_Combined Scores
CCCCCOc1ccc(-c2cc(-c3ccc(C(=O)N[C@H]4C[C@@H](O)[C@@H](O)NC(=O)[C@@H]5[C@@H](O)[C@@H](C)CN5C(=O)[C@H]([C@H](O)CC(N)=O)NC(=O)[C@H]([C@H](O)[C@@H](O)c5ccc(O)c(OS(=O)(=O)O)c5)NC(=O)[C@@H]5C[C@@H](O)CN5C(=O)[C@H]([C@@H](C)O)NC4=O)cc3)no2)cc1 [MICAFUNGIN] (X1-[Orn(4R-OH,5R-OH)]T[Hyp][hTyr(3S-OH,4S-OH,3'-OSO3H)][Gln(3R-OH)][Pro(3S-OH,4S-Me)]; lactam 1-C)	Hepatotoxicity	6
NS(=O)(=O)c1cc2c(cc1Cl)N=CNS2(=O)=O [CHLOROTHIAZIDE]	Hepatotoxicity	1
Cc1ncc2n1-c1ccc(Cl)cc1C(c1ccccc1F)=NC2	Hepatotoxicity	0

Lab note: next compound to report on.
Query block: // lookup HepSE_Combined Scores for CO/N=C(\C(=O)N[C@@H]1C(=O)N2C(C(=O)OCOC(=O)C(C)(C)C)=C(/C=C\c3scnc3C)CS[C@H]12)c1csc(N)n1
Result block: 1

* * *

System: Hepatotoxicity
READOUT_TYPE: HepSE_hepatomegaly
// no unit, no text: just the number

The examples below pair each entry with its known result.
COMPOUND	VALUE_MEASURED
CCOC(=O)[C@H](CCc1ccccc1)N[C@H]1CCCN2CCC[C@@H](C(=O)O)N2C1=O	0
C[C@]12C=CC(=O)C=C1CC[C@H]1[C@@H]3C[C@@H](O)[C@](O)(C(=O)CO)[C@@]3(C)C[C@H](O)[C@@]12F	1

Query block: // lookup HepSE_hepatomegaly for CN(C)[C@@H]1C(O)=C(C(N)=O)C(=O)[C@@]2(O)C(O)=C3C(=O)c4c(O)cccc4[C@@](C)(O)[C@H]3[C@H](O)[C@@H]12
Result block: 0

Query block: What about CC(N)Cc1ccccc1 (centres undefined) ?
Result block: 0

* * *

System: Hepatotoxicity
Where a SMILES comes first, the peptide text is derived from it. Bridges are numbered along the chain shown (N, C = ends). [ ]: non-standard residue; d: D form. The star is where a group is joined. Threoninol(2S,3R) = C[C@@H](O)[C@H](CO)N*
READOUT_TYPE: HepSE_Combined Scores
// no unit, no text: just the number

COMPOUND	HepSE_Combined Scores
C[C@@H](O)[C@H](CO)NC(=O)[C@@H]1CSSC[C@H](NC(=O)[C@H](N)Cc2ccccc2)C(=O)N[C@@H](Cc2ccccc2)C(=O)N[C@H](Cc2c[nH]c3ccccc23)C(=O)N[C@@H](CCCCN)C(=O)N[C@@H]([C@@H](C)O)C(=O)N1 (H-[dF]CF[dW]KTC-{Threoninol(2S,3R)}; disulfide 2-7)	6
CN(C)/N=N/c1[nH]cnc1C(N)=O	0
CN(CCOc1ccc(CC2SC(=O)NC2=O)cc1)c1ccccn1 (configuration not stated)	3

Query block: // lookup HepSE_Combined Scores for N[C@@H]1CON=C1O
Result block: 1

Query block: What about COc1ccccc1Oc1c(NS(=O)(=O)c2ccc(C(C)(C)C)cc2)nc(-c2ncccn2)nc1OCCO ?
Result block: 4

Query block: What about CC(=O)/N=c1/sc(S(N)(=O)=O)nn1C [METHAZOLAMIDE] ?
Result block: 1

Query block: What about NS(=O)(=O)c1cc2c(cc1C(F)(F)F)NC(Cc1ccccc1)NS2(=O)=O (configuration not stated) [BENDROFLUMETHIAZIDE] ?
Result block: 2

* * *

Tested on: Hepatotoxicity
Settings: Liver
READOUT_TYPE: HepSE_liver disease
// no unit, no text: just the number

Query block: // lookup HepSE_liver disease for CO[C@H]1/C=C/O[C@@]2(C)Oc3c(C)c(O)c4c(c3C2=O)C2=NC3(CCN(CC(C)C)CC3)NC2=C(NC(=O)/C(C)=C\C=C\[C@H](C)[C@H](O)[C@@H](C)[C@@H](O)[C@@H](C)[C@H](OC(C)=O)[C@@H]1C)C4=O
Result block: 0

Query block: What about Clc1ccccc1CN1CCc2sccc2C1 ?
Result block: 0

Query block: What about CC(C)c1c(C(=O)Nc2ccccc2)c(-c2ccccc2)c(-c2ccc(F)cc2)n1CC[C@@H](O)C[C@@H](O)CC(=O)O ?
Result block: 0

* * *

Below are HepSE_hepatitis values recorded for Hepatotoxicity.

MOLECULE	TGT	VALUE_MEASURED
C[C@H](O)[C@H](O)[C@H]1CNc2nc(N)[nH]c(=O)c2N1	Hepatotoxicity	0
CCN(CC)CCCC(C)Nc1ccnc2cc(Cl)ccc12 (centres undefined)	Hepatotoxicity	0
NC(=O)NO [HYDROXYUREA]	Hepatotoxicity	0
CC#C[C@]1(O)CC[C@H]2[C@@H]3CCC4=CC(=O)CCC4=C3[C@@H](c3ccc(N(C)C)cc3)C[C@@]21C	Hepatotoxicity	0
CC(C)(C)NC[C@H](O)COc1ccccc1C1CCCC1	Hepatotoxicity	0
O=C1OC2(c3ccc(O)cc3Oc3cc(O)ccc32)c2ccccc21	Hepatotoxicity	0
COc1cc(C(=O)NS(=O)(=O)c2ccccc2C)ccc1Cc1cn(C)c2ccc(NC(=O)OC3CCCC3)cc12	Hepatotoxicity	1
CCc1cccc2c3c([nH]c12)C(CC)(CC(=O)O)OCC3 (centres undefined)	Hepatotoxicity	1

Query block: // lookup HepSE_hepatitis for NC(=O)CC[C@H](N)C(=O)O
Result block: 0

Query block: What about Clc1ccc(CSC(Cn2ccnc2)c2ccc(Cl)cc2Cl)cc1 (centres undefined) ?
Result block: 0

Query block: What about CCCN(CCC)CCc1cccc2c1CC(=O)N2 ?
Result block: 1

Query block: What about c1cnc2cc3c(cc2n1)[C@@H]1CNC[C@H]3C1 ?
Result block: 0

Query block: What about CN1[C@@H]2CC[C@H]1C[C@@H](OC(c1ccccc1)c1ccccc1)C2 ?
Result block: 0

Query block: What about CCCc1nc(C(C)(C)O)c(C(=O)OCc2oc(=O)oc2C)n1Cc1ccc(-c2ccccc2-c2nnn[nH]2)cc1 ?
Result block: 0

Query block: What about N[C@@H](C(=O)N[C@@H]1C(=O)N2C(C(=O)O)=C(Cl)CC[C@H]12)c1ccccc1 [LORACARBEF ANHYDROUS] ?
Result block: 0
